Target: follicle-stimulating hormone (FSH) receptor (Rattus norvegicus, UniProt P20395)
Construct: endogenous in cells
Assay: Rat granulosa EC50 FSH (Assay B)
Description: Example 25. Rat granulosa EC50 FSH (Assay B) The assay was performed pursuant to the teaching of Yanofsky et al. (2006) Allosteric activation of the follicle-stimulating hormone (FSH) receptor by selective, nonpeptide agonists (JBC 281(19): 13226-13233, which is incorporated by reference in the disclosure of the invention).
pEC50: −log10 of the molar value.
PROPERTY: pEC50

query: # pEC50 lookup, item COc1cc(OC)cc(-n2nc(C(=O)N3CC[S+]([O-])CC3(C)C)c3c2-c2cc(-c4ccn(C)n4)c(OC)cc2OC3)c1 (stereo not drawn)
result: 6.30 to 7.00

query: # pEC50 lookup, item `COc1cc2c(cc1-c1cc(F)cc(C(N)=O)c1)-c1c(c(C(=O)N(C)C(C)(C)C)nn1-c1cc(Cl)cc(Cl)c1)CO2`
result: > 8.00

query: # pEC50 lookup, item `COc1cc(OC)cc(-n2nc(C(=O)N3CCOCC3(C)C)c3c2-c2cc(-c4cncc(C)c4)c(OC)cc2OC3)c1`
result: 7.00 to 8.00

---

Biological target: FSHR (Homo sapiens)
Construct: expressed in transfected cells; host or cells: CHO (Cho-FSHR-LUC-1-1-43)
Assay: EC50 of cyclic AMP production in CHO FSHR cells + EC20 FSH (Assay A)
Format: cell-based
Conditions: cyclic AMP production in CHO FSHR cells + EC20 FSH (0.265 pM), HTRF
pEC50: −log10 of the molar value.
Kindly state pEC50 for each of the entries shown.

query: # pEC50 lookup, item `COc1cc2c(cc1-c1c(C)nn(CC(=O)O)c1C)-c1c(c(C(=O)N(C)C(C)(C)C)nn1-c1cc(Cl)cc(Cl)c1)CO2`
result: > 8.00

query: # pEC50 lookup, item `COc1cc2c(cc1-c1ccccc1C(N)=O)-c1c(c(C(=O)N(C)C(C)(C)C)nn1-c1cc(Cl)cc(Cl)c1)CO2`
result: > 8.00

query: # pEC50 lookup, item COc1cc2c(cc1-c1cncc(C#N)c1)-c1c(c(C(=O)N3CCC(O)CC3(C)C)nn1-c1cc(F)cc(F)c1)CO2 (stereo not drawn)
result: > 8.00

---

Biological target: FSHR (Homo sapiens, UniProt P23945)
Sequence (P23945 18-695): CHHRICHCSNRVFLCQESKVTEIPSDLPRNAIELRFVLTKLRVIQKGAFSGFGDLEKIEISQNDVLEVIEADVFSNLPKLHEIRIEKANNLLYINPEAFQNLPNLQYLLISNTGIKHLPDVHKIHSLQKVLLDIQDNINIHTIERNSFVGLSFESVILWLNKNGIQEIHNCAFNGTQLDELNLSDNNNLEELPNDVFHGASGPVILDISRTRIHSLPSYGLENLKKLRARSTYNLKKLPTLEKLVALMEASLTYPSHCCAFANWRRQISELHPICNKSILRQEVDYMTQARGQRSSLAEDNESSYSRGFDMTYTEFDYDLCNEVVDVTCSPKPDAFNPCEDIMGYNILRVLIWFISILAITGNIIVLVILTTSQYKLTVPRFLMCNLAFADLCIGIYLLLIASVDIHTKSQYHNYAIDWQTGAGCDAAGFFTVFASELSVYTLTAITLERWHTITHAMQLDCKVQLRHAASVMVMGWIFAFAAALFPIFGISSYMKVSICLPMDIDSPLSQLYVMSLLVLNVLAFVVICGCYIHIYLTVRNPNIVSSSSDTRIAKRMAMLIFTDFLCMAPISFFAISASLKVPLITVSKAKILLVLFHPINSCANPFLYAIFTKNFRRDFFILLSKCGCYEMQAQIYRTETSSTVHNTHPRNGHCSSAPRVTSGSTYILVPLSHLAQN
Test: EC50 of cyclic AMP production in CHO FSHR cells + EC20 FSH (Assay A)
Conditions: cyclic AMP production in CHO FSHR cells + EC20 FSH (0.265 pM), HTRF
pEC50: −log10 of the molar value.
Kindly state pEC50 for each of the entries shown.

query: # pEC50 lookup, item `CNC(=O)Cn1nc(C)c(-c2cc3c(cc2OC)OCc2c(C(=O)N(C)C(C)(C)C)nn(-c4cc(Cl)cc(Cl)c4)c2-3)c1C`
result: > 8.00

query: # pEC50 lookup, item COc1cc2c(cc1-c1ccccn1)-c1c(c(C(=O)N3CCC(O)CC3(C)C)nn1-c1cc(Cl)cc(Cl)c1)CO2 (centres unmarked) [Compound 10]
result: > 8.00

query: # pEC50 lookup, item `[2H]C([2H])([2H])Oc1cc(Cl)cc(-n2nc(C(=O)N(C)C(C)(C)C)c3c2-c2cc(-c4cncc(C#N)c4)c(OC([2H])([2H])[2H])cc2OC3)c1`
result: > 8.00

query: # pEC50 lookup, item `COc1cc2c(cc1-c1cncc(C#N)c1)-c1c(c(C(=O)N3CCOCC3(C)C)nn1-c1cc(Cl)cc(Cl)c1)CO2`
result: > 8.00

query: # pEC50 lookup, item `COc1cc2c(cc1-c1cncc(NC(C)=O)c1)-c1c(c(C(=O)N(C)C(C)(C)C)nn1-c1cc(Cl)cc(Cl)c1)CO2`
result: > 8.00

query: # pEC50 lookup, item `COc1cc2c(cc1-c1ccn(C)n1)-c1c(c(C(=O)N3CCOCC3(C)C)nn1-c1cc(F)cc(Cl)c1)CO2`
result: 7.00 to 8.00

query: # pEC50 lookup, item `COc1cc2c(cc1-c1nc[nH]n1)-c1c(c(C(=O)N(C)C(C)(C)C)nn1-c1ccsc1)CO2`
result: > 8.00

query: # pEC50 lookup, item COc1cc2c(cc1-c1cncc(C(N)=O)c1)-c1c(c(C(=O)N3CCC(O)CC3(C)C)nn1-c1cc(F)cc(F)c1)CO2 (centres unmarked)
result: > 8.00

query: # pEC50 lookup, item `COc1cc2c(cc1-c1cnn(CCO)c1)-c1c(c(C(=O)N(C)C(C)(C)C)nn1-c1cc(Cl)cc(Cl)c1)CO2`
result: > 8.00

query: # pEC50 lookup, item `COc1cc2c(cc1-c1ccn(C)n1)-c1c(c(C(=O)N(C)C(C)(C)C)nn1-c1cc(F)cc(Cl)c1)CO2`
result: 7.00 to 8.00

query: # pEC50 lookup, item `COC(=O)c1cc(-c2cc3c(cc2OC)OCc2c(C(=O)N(C)C(C)(C)C)nn(-c4cc(F)cc(F)c4)c2-3)cnc1N`
result: > 8.00

query: # pEC50 lookup, item `COc1cc2c(cc1-c1c(C)nn(CC(N)=O)c1C)-c1c(c(C(=O)N(C)C(C)(C)C)nn1-c1cc(Cl)cc(Cl)c1)CO2`
result: > 8.00

query: # pEC50 lookup, item `COc1cc2c(cc1-c1cnn(CCO)c1)-c1c(c(C(=O)N(C)C(C)(C)C)nn1-c1ccsc1)CO2`
result: 7.00 to 8.00

query: # pEC50 lookup, item `COc1cc2c(cc1-c1cccc(C(N)=O)c1)-c1c(c(C(=O)N(C)C(C)(C)C)nn1-c1cc(Cl)cc(Cl)c1)CO2`
result: > 8.00

---

Molecular target: follicle-stimulating hormone (FSH) receptor (Rattus norvegicus)
Construct: endogenous in cells
Sequence (P20395 18-692): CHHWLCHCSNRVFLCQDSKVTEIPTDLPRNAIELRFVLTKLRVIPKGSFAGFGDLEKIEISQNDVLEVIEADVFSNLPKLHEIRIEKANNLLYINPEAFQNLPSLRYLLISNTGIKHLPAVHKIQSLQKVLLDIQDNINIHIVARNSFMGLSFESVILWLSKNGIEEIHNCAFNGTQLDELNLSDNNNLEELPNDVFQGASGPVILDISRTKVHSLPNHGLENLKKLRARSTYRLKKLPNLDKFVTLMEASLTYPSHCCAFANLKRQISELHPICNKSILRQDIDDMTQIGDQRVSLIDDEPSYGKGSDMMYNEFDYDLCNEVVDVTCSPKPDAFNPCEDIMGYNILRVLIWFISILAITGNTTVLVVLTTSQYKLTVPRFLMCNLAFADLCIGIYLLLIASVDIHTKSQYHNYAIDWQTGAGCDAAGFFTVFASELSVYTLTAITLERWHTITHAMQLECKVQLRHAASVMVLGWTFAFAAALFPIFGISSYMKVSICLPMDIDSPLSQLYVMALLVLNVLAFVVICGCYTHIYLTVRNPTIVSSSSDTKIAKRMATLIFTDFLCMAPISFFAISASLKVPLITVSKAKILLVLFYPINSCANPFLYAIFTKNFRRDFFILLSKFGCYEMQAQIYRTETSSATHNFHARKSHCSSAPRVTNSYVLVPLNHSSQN
Assay: Rat granulosa EC50 FSH (Assay B)
PROPERTY: EC50

query: Item COc1cc2c(cc1C1CC1C(N)=O)-c1c(c(C(=O)N(C)C(C)(C)C)nn1-c1cc(Cl)cc(Cl)c1)CO2 (stereo not drawn) with follicle-stimulating hormone (FSH) receptor (Rattus norvegicus) - EC50?
result: 101 to 500 nM

query: Item `COc1cc2c(cc1-c1ccn(C)n1)-c1c(c(C(=O)N(CCO)C(C)(C)C)nn1-c1ccsc1)CO2` with follicle-stimulating hormone (FSH) receptor (Rattus norvegicus) - EC50?
result: > 500 nM

query: Item `COc1cc2c(cc1-c1ccccn1)-c1c(c(C(=O)N(C)C(C)(C)C)nn1-c1ccsc1)CO2` with follicle-stimulating hormone (FSH) receptor (Rattus norvegicus) - EC50?
result: > 500 nM

query: Item COC(=O)[C@H]1C[C@@H]1c1cc2c(cc1OC)OCc1c(C(=O)N(C)C(C)(C)C)nn(-c3cc(F)cc(F)c3)c1-2 (racemic) with follicle-stimulating hormone (FSH) receptor (Rattus norvegicus) - EC50?
result: 101 to 500 nM

query: Item `COc1cc2c(cc1-c1cc(C(N)=O)ccc1F)-c1c(c(C(=O)N(C)C(C)(C)C)nn1-c1cc(Cl)cc(Cl)c1)CO2` with follicle-stimulating hormone (FSH) receptor (Rattus norvegicus) - EC50?
result: 10 to 100 nM

query: Item `COc1cc2c(cc1-c1cc(C(N)=O)ncc1F)-c1c(c(C(=O)N(C)C(C)(C)C)nn1-c1cc(F)cc(F)c1)CO2` with follicle-stimulating hormone (FSH) receptor (Rattus norvegicus) - EC50?
result: 10 to 100 nM

query: Item `COc1cc2c(cc1-c1cnn(CC(=O)O)c1)-c1c(c(C(=O)N(C)C(C)(C)C)nn1-c1cc(Cl)cc(Cl)c1)CO2` with follicle-stimulating hormone (FSH) receptor (Rattus norvegicus) - EC50?
result: 101 to 500 nM

query: Item `CNC(=O)c1cc(-c2cc3c(cc2OC)OCc2c(C(=O)N(C)C(C)(C)C)nn(-c4cc(F)cc(F)c4)c2-3)cnc1N` with follicle-stimulating hormone (FSH) receptor (Rattus norvegicus) - EC50?
result: 10 to 100 nM

query: Item `COc1cc2c(cc1-c1cccc(C#N)c1F)-c1c(c(C(=O)N(C)C(C)(C)C)nn1-c1cc(Cl)cc(Cl)c1)CO2` with follicle-stimulating hormone (FSH) receptor (Rattus norvegicus) - EC50?
result: 101 to 500 nM

query: Item `COc1cc2c(cc1-c1nn(C)cc1Cl)-c1c(c(C(=O)N3CCOCC3(C)C)nn1-c1cc(F)cc(F)c1)CO2` with follicle-stimulating hormone (FSH) receptor (Rattus norvegicus) - EC50?
result: 10 to 100 nM

query: Item `COc1cc2c(cc1-c1cncc(C)c1)-c1c(c(C(=O)N(C)C(C)(C)C)nn1-c1ccsc1)CO2` with follicle-stimulating hormone (FSH) receptor (Rattus norvegicus) - EC50?
result: > 500 nM

query: Item `COc1cc2c(cc1-c1cncc(CO)c1)-c1c(c(C(=O)N3CCOCC3(C)C)nn1-c1cc(Cl)cc(Cl)c1)CO2` with follicle-stimulating hormone (FSH) receptor (Rattus norvegicus) - EC50?
result: 10 to 100 nM

query: Item `COc1cc2c(cc1-c1cncc(C(N)=O)c1)-c1c(c(C(=O)N3CCOCC3(C)C)nn1-c1cc(Cl)cc(Cl)c1)CO2` with follicle-stimulating hormone (FSH) receptor (Rattus norvegicus) - EC50?
result: 101 to 500 nM

query: Item `COc1cc2c(cc1-c1cc(F)cc(C(=O)O)c1)-c1c(c(C(=O)N(C)C(C)(C)C)nn1-c1cc(Cl)cc(Cl)c1)CO2` with follicle-stimulating hormone (FSH) receptor (Rattus norvegicus) - EC50?
result: 101 to 500 nM

query: Item `COc1cc(OC)cc(-n2nc(C(=O)N(C)C(C)(C)CCO)c3c2-c2cc(-c4cccnc4F)c(OC)cc2OC3)c1` with follicle-stimulating hormone (FSH) receptor (Rattus norvegicus) - EC50?
result: 10 to 100 nM

query: Item `COc1cc2c(cc1-c1cc(C)cnc1OC)-c1c(c(C(=O)N(C)C(C)(C)C)nn1-c1cc(Cl)cc(Cl)c1)CO2` with follicle-stimulating hormone (FSH) receptor (Rattus norvegicus) - EC50?
result: 101 to 500 nM

query: Item `COc1cc2c(cc1-c1cc(F)cc(CO)c1)-c1c(c(C(=O)N(C)C(C)(C)C)nn1-c1cc(Cl)cc(Cl)c1)CO2` with follicle-stimulating hormone (FSH) receptor (Rattus norvegicus) - EC50?
result: 101 to 500 nM

query: Item `CCN(C(=O)c1nn(-c2cc(Cl)cc(Cl)c2)c2c1COc1cc(OC)c(-c3ccn(C)n3)cc1-2)S(=O)(=O)CC` with follicle-stimulating hormone (FSH) receptor (Rattus norvegicus) - EC50?
result: 101 to 500 nM

query: Item `COc1cc(F)cc(-n2nc(C(=O)N3CCOCC3(C)C)c3c2-c2cc(-c4ccn(C)n4)c(OC)cc2OC3)c1` with follicle-stimulating hormone (FSH) receptor (Rattus norvegicus) - EC50?
result: 101 to 500 nM

query: Item COc1cc2c(cc1-c1cncc(C(N)=O)c1)-c1c(c(C(=O)N3CCC(O)CC3(C)C)nn1-c1cc(F)cc(F)c1)CO2 (stereo not drawn) with follicle-stimulating hormone (FSH) receptor (Rattus norvegicus) - EC50?
result: 101 to 500 nM

query: Item `COc1cc2c(cc1-c1cncc(C(N)=O)c1)-c1c(c(C(=O)N(C)C(C)(C)C#N)nn1-c1cc(F)cc(Cl)c1)CO2` with follicle-stimulating hormone (FSH) receptor (Rattus norvegicus) - EC50?
result: 10 to 100 nM

query: Item `COc1cc(OC)cc(-n2nc(C(=O)N(C)C(C)(C)C)c3c2-c2cc(-c4ccccn4)c(OC)cc2OC3)c1` with follicle-stimulating hormone (FSH) receptor (Rattus norvegicus) - EC50?
result: 101 to 500 nM

query: Item `COc1cc2c(cc1-c1cncc(CO)c1)-c1c(c(C(=O)N(C)C(C)(C)C)nn1-c1cc(Cl)cc(Cl)c1)CO2` with follicle-stimulating hormone (FSH) receptor (Rattus norvegicus) - EC50?
result: 10 to 100 nM

query: Item `COc1cc2c(cc1-c1cc(=O)[nH]n1C)-c1c(c(C(=O)N(C)C(C)(C)C)nn1-c1ccsc1)CO2` with follicle-stimulating hormone (FSH) receptor (Rattus norvegicus) - EC50?
result: 101 to 500 nM

query: Item `COc1cc(C(N)=O)cc(-c2cc3c(cc2OC)OCc2c(C(=O)N(C)C(C)(C)C)nn(-c4cc(Cl)cc(Cl)c4)c2-3)n1` with follicle-stimulating hormone (FSH) receptor (Rattus norvegicus) - EC50?
result: 101 to 500 nM

query: Item `COc1cc(OC)cc(-n2nc(C(=O)N(C)C(C)(C)C)c3c2-c2cc(-c4cc(C(N)=O)c[n+]([O-])c4)c(OC)cc2OC3)c1` with follicle-stimulating hormone (FSH) receptor (Rattus norvegicus) - EC50?
result: 10 to 100 nM

query: Item `COc1cc2c(cc1-c1cncc(C#N)c1)-c1c(c(C(=O)N3CCOCC3(C)C)nn1-c1cc(F)cc(Cl)c1)CO2` with follicle-stimulating hormone (FSH) receptor (Rattus norvegicus) - EC50?
result: 101 to 500 nM
